Each entry below carries its reported Solubility in EVA28/2.5 at 37° C. (via HSM).
method_summary: Solubility in EVA by hot stage microscopy
Format: physicochemical
condition_parameters: EVA28/2.5, hot stage microscopy

Retrieve Solubility in EVA28/2.5 at 37° C. (via HSM) measured for C[C@]12CCC3c4ccc(OC(=O)C5CC5)cc4CCC3C1C[C@@H](O)[C@@H]2O (stereo partly shown) and print it.
0.5-2 wt %

# return recorded Solubility in EVA28/2.5 at 37° C. (via HSM) for input CC(=O)Oc1ccc2c(c1)CCC1C2CC[C@@]2(C)C1C[C@@H](O)[C@@H]2O (stereo partly shown)
0.5 wt %

Output measured Solubility in EVA28/2.5 at 37° C. (via HSM) for this item: C[C@]12CCC3c4ccc(O)cc4CCC3C1C[C@@H](O)[C@@H]2OC(=O)C1CC1 (stereo partly shown)
4-5 wt %

Provide one value: measured Solubility in EVA28/2.5 at 37° C. (via HSM) of C[C@]12CC[C@@H]3c4ccc(O)cc4CC[C@H]3[C@@H]1C[C@@H](O)[C@@H]2O
0.5-1%

Where do the numbers come from? From patent US20190328658A1.
